Where do these numbers come from? They come from ChEMBL document CHEMBL1145333.

pIC50: −log10 of the molar value.
Please consider the recorded pIC50 for Prothrombin (Homo sapiens, UniProt P00734) in what follows.
Readout Label: pIC50

* N=C(N)c1ccc(CNC(=O)C2(NC(=O)[C@H](NCC(=O)O)C3CCCCC3)Cc3ccccc3C2)cc1 | 4.33
* CC(C)[C@@H](NCC(=O)O)C(=O)NC1(C(=O)NCc2ccc(C(=N)N)cc2)Cc2cccnc2C1 (single isomer, unassigned; diastereomer 2) | 3.52
* CC(C)[C@@H](NCC(=O)O)C(=O)NC1(C(=O)NCc2ccc(C(=N)N)cc2)Cc2ccc3ccccc3c2C1 (some centres undefined) | 6.11

----------
Please consider the recorded IC50 for UniProt P04070 in what follows.
Readout Label: IC50 (nM)

- CC(C)[C@@H](NCC(=O)O)C(=O)NC1(C(=O)NCc2ccc(C(=N)N)cc2)Cc2cccnc2C1 (single isomer, unassigned; diastereomer 2): 1140
- N=C(N)c1ccc(CNC(=O)C2(NC(=O)C3(NCC(=O)O)CCCC3)Cc3ccccc3C2)cc1: 53000
- CC(C)[C@@H](NCC(=O)O)C(=O)NC1(C(=O)NCc2ccc(C(=N)N)cc2)Cc2cccnc2C1 (single isomer, unassigned; diastereomer 1): 1070

----------
Please consider the recorded IC50 for Vitamin K-dependent protein C (Homo sapiens, UniProt P04070) in what follows.
Readout Label: IC50 (µM)

• CC[C@@H](NCC(=O)O)C(=O)NC1(C(=O)NCc2ccc(C(=N)N)cc2)Cc2ccccc2C1 = 2.04
• COc1cc2c(cc1OC)CC(NC(=O)[C@H](NCC(=O)O)C(C)C)(C(=O)NCc1ccc(C(=N)N)cc1)C2 = 10.9

----------
Biological target: Vitamin K-dependent protein C (Homo sapiens, UniProt P04070)
Sequence (P04070 43-197 limits assumed): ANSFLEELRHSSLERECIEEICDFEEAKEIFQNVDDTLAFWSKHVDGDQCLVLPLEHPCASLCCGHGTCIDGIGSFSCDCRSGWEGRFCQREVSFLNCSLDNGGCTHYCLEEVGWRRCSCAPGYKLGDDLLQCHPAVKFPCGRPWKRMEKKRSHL
Sequence (P04070 212-461 limits assumed): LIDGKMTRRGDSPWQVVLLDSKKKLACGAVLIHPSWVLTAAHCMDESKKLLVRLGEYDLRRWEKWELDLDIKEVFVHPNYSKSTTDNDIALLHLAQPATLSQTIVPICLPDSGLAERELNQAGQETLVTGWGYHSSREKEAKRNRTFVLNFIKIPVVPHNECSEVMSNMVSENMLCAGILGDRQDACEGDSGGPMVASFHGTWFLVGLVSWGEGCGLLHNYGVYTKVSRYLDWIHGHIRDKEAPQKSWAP
pIC50: −log10 of the molar value.
Readout Label: pIC50

* CC(C)[C@@H](NCC(=O)O)C(=O)NC1(C(=O)NCc2ccc(C(=N)N)cc2)Cc2ccc3ccccc3c2C1 (stereo partly drawn) | 6.60
* CC(C)(NCC(=O)O)C(=O)NC1(C(=O)NCc2ccc(C(=N)N)cc2)Cc2ccccc2C1 | 4.36
* CC(C)[C@@H](NCC(=O)O)C(=O)NC1(C(=O)NCc2ccc(C(=N)N)cc2)Cc2ccncc2C1 (stereo partly drawn) | 5.77
* CC(C)[C@@H](NCC(=O)O)C(=O)NC1(C(=O)NCc2ccc(C(=N)N)cc2)Cc2cccc3cccc(c23)C1 | 6.37
* CC(C)[C@@H](NCC(=O)O)C(=O)NC1(C(=O)NCc2ccc(C(=N)N)cc2)Cc2ccccc2-c2ccccc2C1 | 4.90
* C[C@@H](NCC(=O)O)C(=O)NC1(C(=O)NCc2ccc(C(=N)N)cc2)Cc2ccccc2C1 | 5.04
* CC(C)[C@@H](NCC(=O)O)C(=O)N[C@H](C(=O)NCc1ccc(C(=N)N)cc1)C1Cc2ccccc2C1 | 6.46

----------
pIC50: −log10 of the molar value.
Please consider the recorded pIC50 for Prothrombin (Homo sapiens) in what follows.
Readout Label: pIC50

* N=C(N)c1ccc(CNC(=O)C2(NC(=O)C3(NCC(=O)O)CCCC3)Cc3ccccc3C2)cc1 | 5.36
* CC(C)[C@@H](NCC(=O)O)C(=O)NC1(C(=O)NCc2ccc(C(=N)N)cc2)Cc2ccccc2C1 | < 3.52
* N=C(N)c1ccc(CNC(=O)C2(NC(=O)[C@@H](NCC(=O)O)C3CCCCC3)Cc3ccccc3C2)cc1 | < 4.48
